assay: BHET released, HPLC; higher = more BHET released; extreme values may be limits of the assay; details: PET substrate: cryPow; 60 °C; pH 7.5; 24 h
For each of the sequences below, state its BHET released.
Answers are plain numbers, in mM.

Please give BHET released for each item listed below.
1. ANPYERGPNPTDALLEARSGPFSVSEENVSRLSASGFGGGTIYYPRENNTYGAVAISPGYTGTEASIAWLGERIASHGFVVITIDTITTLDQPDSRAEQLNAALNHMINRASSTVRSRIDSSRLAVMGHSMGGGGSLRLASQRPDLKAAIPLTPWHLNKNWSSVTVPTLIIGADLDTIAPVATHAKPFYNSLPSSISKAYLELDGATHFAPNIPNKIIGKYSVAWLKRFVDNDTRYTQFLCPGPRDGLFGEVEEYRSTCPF [TfCut2]
2. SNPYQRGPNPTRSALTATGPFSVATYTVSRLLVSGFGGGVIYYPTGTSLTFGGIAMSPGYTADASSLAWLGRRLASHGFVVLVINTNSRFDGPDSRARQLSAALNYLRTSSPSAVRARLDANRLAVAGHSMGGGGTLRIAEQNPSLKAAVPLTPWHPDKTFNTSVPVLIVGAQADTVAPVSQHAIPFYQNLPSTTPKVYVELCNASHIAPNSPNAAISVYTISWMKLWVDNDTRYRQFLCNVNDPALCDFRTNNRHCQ [LCC-ICCG I6M]
3. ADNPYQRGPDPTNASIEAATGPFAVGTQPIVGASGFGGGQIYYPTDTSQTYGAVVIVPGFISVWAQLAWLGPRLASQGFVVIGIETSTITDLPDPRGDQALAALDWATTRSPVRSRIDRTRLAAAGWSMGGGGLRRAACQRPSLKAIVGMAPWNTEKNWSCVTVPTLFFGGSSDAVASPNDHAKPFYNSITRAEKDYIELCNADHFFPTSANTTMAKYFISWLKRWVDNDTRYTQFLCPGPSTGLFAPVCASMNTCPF [CaPETaseM9]

OUT:
0.0022
0
0

====

For each of the sequences below, state its MHET released.
experiment: MHET released, HPLC; higher = more MHET released; extreme values may be limits of the assay; conditions: PET substrate: cryPow; 60 °C; pH 7.5; 24 h
Give bare numbers, in mM.

construct_sequence="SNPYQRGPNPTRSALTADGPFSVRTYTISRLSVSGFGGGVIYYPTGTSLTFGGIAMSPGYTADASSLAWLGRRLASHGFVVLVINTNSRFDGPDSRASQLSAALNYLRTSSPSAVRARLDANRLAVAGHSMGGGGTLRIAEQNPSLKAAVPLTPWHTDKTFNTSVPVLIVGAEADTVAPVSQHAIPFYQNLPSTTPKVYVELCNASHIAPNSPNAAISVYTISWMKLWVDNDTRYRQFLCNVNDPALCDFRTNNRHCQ [LCC-ICCG RIP]" measure="MHET released" result_units=mM numeric_value=0.292
construct_sequence="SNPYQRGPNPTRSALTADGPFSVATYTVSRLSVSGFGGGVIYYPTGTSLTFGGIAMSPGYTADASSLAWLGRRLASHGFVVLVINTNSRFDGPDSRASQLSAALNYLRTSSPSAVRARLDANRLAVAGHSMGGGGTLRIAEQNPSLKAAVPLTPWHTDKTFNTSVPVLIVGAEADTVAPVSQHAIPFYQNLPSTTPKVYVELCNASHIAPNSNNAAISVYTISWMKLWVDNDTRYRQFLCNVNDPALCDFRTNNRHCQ [LCC-ICCG]" measure="MHET released" result_units=mM numeric_value=0.507

Now examine the next entry.
// MHET released value for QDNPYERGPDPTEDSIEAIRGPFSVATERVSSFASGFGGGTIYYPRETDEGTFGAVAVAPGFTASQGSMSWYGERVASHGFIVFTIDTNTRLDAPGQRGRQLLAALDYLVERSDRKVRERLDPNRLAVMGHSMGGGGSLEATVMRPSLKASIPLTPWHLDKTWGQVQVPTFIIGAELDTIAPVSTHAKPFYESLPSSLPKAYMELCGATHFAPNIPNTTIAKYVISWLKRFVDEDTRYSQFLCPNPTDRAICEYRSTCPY [Cut190*SS] : 0.202
